Molecular target: T1, human CX3CR1 (human, UniProt P49238 1-355)
T1 construct: Overexpressed on CHO K1, Ba/F3 or HEK293T cells; also called huCX3CR1; hCX3CR1
T1 sequence: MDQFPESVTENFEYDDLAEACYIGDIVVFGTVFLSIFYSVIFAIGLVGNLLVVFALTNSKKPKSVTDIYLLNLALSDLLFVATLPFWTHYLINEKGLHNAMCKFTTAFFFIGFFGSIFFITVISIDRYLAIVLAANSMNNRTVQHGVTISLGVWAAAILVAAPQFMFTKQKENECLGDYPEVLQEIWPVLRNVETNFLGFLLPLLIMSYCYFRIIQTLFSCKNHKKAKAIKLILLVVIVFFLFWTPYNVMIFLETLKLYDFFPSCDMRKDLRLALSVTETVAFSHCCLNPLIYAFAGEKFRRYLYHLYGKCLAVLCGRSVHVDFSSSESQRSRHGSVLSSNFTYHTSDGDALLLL
Assay: competition flow cytometry vs soluble huCX3CL1-AF647 on CHO K1 huCX3CR1 cells, 30 uM HSA
MEASURED_ENDPOINT: IC50 (nM)
Write the number in nM without appending the unit.

For the binder A041600011 (VHH, Trivalent ISVD construct (two anti-CX3CR1 ISVDs, one anti-albumin ISVD), C-terminal alanine included in the entry; also called 66B02_SO (E1D)-9GS-66B02_SO-9GS-ALB23002-A) DVQLVESGGGSVQPGGSLRLSCAASGSIFSSTAMAWYRQAPGKRRDLVAAINTVGVTKYADSVKGRFTISRDNAKNTVYLQMNSLRPEDTALYYCTSDPRRGWDTRYWGQGTLVTVSSGGGGSGGGSEVQLVESGGGSVQPGGSLRLSCAASGSIFSSTAMAWYRQAPGKRRDLVAAINTVGVTKYADSVKGRFTISRDNAKNTVYLQMNSLRPEDTALYYCTSDPRRGWDTRYWGQGTLVTVSSGGGGSGGGSEVQLVESGGGVVQPGGSLRLSCAASGFTFRSFGMSWVRQAPGKGPEWVSSISGSGSDTLYADSVKGRFTISRDNSKNTLYLQMNSLRPEDTALYYCTIGGSLSRSSQGTLVTVSSA , what IC50 is on record?
0.66
